measured-metric: IC50 (nM)
# output: bare number, implied unit nM

Form field, IC50 with human CSNK1D (Homo sapiens (Human)), item O=C(Cc1ccns1)Nc1cc(-c2[nH]c3cccnc3c2-c2ccccn2)ccn1 : 4.84

Form field, IC50 with human CSNK1D (Homo sapiens (Human)), item Cc1ocnc1CC(=O)Nc1cc(-c2[nH]c3cccnc3c2-c2ccccn2)ccn1 : 8.09

Form field, IC50 with human CSNK1D (Homo sapiens (Human)), item Cn1cnc(CC(=O)Nc2cc(-c3[nH]c4cccnc4c3-c3ccccn3)ccn2)c1 : 13.1

Form field, IC50 with human CSNK1D (Homo sapiens (Human)), item CC(C)n1ccc(CC(=O)Nc2cc(-c3[nH]c4cccnc4c3-c3ccccn3)ccn2)n1 : 6.3

###

test: Solubility assay (thermodynamic solubility)
Type: physicochemical
condition-details: thermodynamic from solid, aqueous buffer, mean, read-out: Thermodynamic Solubility [μmol/L] (mean)
Binary classification by solubility thermodynamic at 24 h, with 10 µmol/L as an inclusive lower bound for class 1; all other cases are class 0.

(Q) Could you tell me if the measured solubility thermodynamic at 24 h of Cc1ncc(CC(=O)Nc2cc(-c3[nH]c4cccnc4c3-c3ccccn3)ccn2)o1 [Example 24] reaches 10 µmol/L or more?
(A) class 1

(Q) Could you tell me if the measured solubility thermodynamic at 24 h of Cn1cc(CC(=O)Nc2cc(-c3[nH]c4cccnc4c3-c3ccccn3)ccn2)cn1 [Example 2] reaches 10 µmol/L or more?
(A) class 1

(Q) Could you tell me if the measured solubility thermodynamic at 24 h of Cc1nc(C)c(CC(=O)Nc2cc(-c3[nH]c4cccnc4c3-c3ccccn3)ccn2)s1 [Example 18] reaches 10 µmol/L or more?
(A) class 1

(Q) Could you tell me if the measured solubility thermodynamic at 24 h of CC(C)n1ccc(CC(=O)Nc2cc(-c3[nH]c4cccnc4c3-c3ccccn3)ccn2)n1 [Example 28] reaches 10 µmol/L or more?
(A) class 0

(Q) Could you tell me if the measured solubility thermodynamic at 24 h of Cc1nn(C)cc1CC(=O)Nc1cc(-c2[nH]c3cccnc3c2-c2ccccn2)ccn1 [Example 9] reaches 10 µmol/L or more?
(A) class 0

(Q) Could you tell me if the measured solubility thermodynamic at 24 h of O=C(Cc1cc2ccccn2n1)Nc1cc(-c2[nH]c3cccnc3c2-c2ccccn2)ccn1 [Example 15] reaches 10 µmol/L or more?
(A) class 0

(Q) Could you tell me if the measured solubility thermodynamic at 24 h of Cc1nc(CC(=O)Nc2cc(-c3[nH]c4cccnc4c3-c3ccccn3)ccn2)co1 [Example 25] reaches 10 µmol/L or more?
(A) class 1

(Q) Could you tell me if the measured solubility thermodynamic at 24 h of Cc1ocnc1CC(=O)Nc1cc(-c2[nH]c3cccnc3c2-c2ccccn2)ccn1 [Example 11] reaches 10 µmol/L or more?
(A) class 1

###

measured-target: human CSNK1A1 (Homo sapiens (Human), UniProt P48729)
Sequence (P48729 whole entry): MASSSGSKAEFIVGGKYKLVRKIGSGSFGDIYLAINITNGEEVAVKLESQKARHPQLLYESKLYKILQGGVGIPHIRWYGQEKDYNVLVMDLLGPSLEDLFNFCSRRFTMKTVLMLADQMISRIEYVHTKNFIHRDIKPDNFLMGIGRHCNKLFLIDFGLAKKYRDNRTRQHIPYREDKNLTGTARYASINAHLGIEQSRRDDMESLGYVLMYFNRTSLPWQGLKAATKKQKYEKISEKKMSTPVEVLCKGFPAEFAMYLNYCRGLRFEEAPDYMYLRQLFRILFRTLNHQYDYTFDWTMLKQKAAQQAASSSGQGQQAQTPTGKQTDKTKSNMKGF
test: CSNK1A1 high ATP assay (ADP-Glo, 1 mM ATP)
Format: biochemical
condition-details: median, read-out: CSNK1A1 High ATP assay IC50 [mol/l] (median)
Returns: string. Value is Yes if measured IC50 is below 90 nM, and No if it is greater than or equal to it.

(Q) In the record for O=C(Cc1ccno1)Nc1cc(-c2[nH]c3cccnc3c2-c2ccccn2)ccn1 [Example 23] , is IC50 less than 90 nM?
(A) Yes

(Q) In the record for O=C(Cc1cnc2ccccn12)Nc1cc(-c2[nH]c3cccnc3c2-c2ccccn2)ccn1 [Example 1] , is IC50 less than 90 nM?
(A) Yes

(Q) In the record for Cn1nc(CC(=O)Nc2cc(-c3[nH]c4cccnc4c3-c3ccccn3)ccn2)cc1C(F)(F)F [Example 21] , is IC50 less than 90 nM?
(A) Yes

(Q) In the record for Cc1nn(C)c(C)c1CC(=O)Nc1cc(-c2[nH]c3cccnc3c2-c2ccccn2)ccn1 [Example 17] , is IC50 less than 90 nM?
(A) No

(Q) In the record for Cc1cc(CC(=O)Nc2cc(-c3[nH]c4cccnc4c3-c3ccccn3)ccn2)on1 [Example 13] , is IC50 less than 90 nM?
(A) Yes

(Q) In the record for Cn1cc(C(CC(F)F)C(=O)Nc2cc(-c3[nH]c4cccnc4c3-c3ccccn3)ccn2)cn1 (stereo not shown) [Example 19] , is IC50 less than 90 nM?
(A) No

(Q) In the record for Cc1nc(C)c(CC(=O)Nc2cc(-c3[nH]c4cccnc4c3-c3ccccn3)ccn2)s1 [Example 18] , is IC50 less than 90 nM?
(A) Yes

(Q) In the record for Cc1cc(CC(=O)Nc2cc(-c3[nH]c4cccnc4c3-c3ccccn3)ccn2)nn1C [Example 16] , is IC50 less than 90 nM?
(A) Yes

(Q) In the record for Cn1nc(CC(=O)Nc2cc(-c3[nH]c4cccnc4c3-c3ccccn3)ccn2)cc1C1CC1 [Example 29] , is IC50 less than 90 nM?
(A) No

(Q) In the record for O=C(Cc1ccns1)Nc1cc(-c2[nH]c3cccnc3c2-c2ccccn2)ccn1 [Example 22] , is IC50 less than 90 nM?
(A) Yes

(Q) In the record for O=C(Nc1cc(-c2[nH]c3c(OCC(F)F)ncnc3c2-c2ccccn2)ccn1)[C@@H](CC(F)F)c1ccc(F)cc1 [Example C3, reference compound] , is IC50 less than 90 nM?
(A) Yes

(Q) In the record for O=C(Cc1ccn(CC(F)(F)F)n1)Nc1cc(-c2[nH]c3cccnc3c2-c2ccccn2)ccn1 [Example 20] , is IC50 less than 90 nM?
(A) No

(Q) In the record for O=C(Nc1cc(-c2[nH]c3ccc(F)nc3c2-c2ccccn2)ccn1)[C@@H](CC(F)F)c1ccc(F)cc1 [Example C2, reference compound] , is IC50 less than 90 nM?
(A) Yes

(Q) In the record for Cn1cc(CC(=O)Nc2cc(-c3[nH]c4cccnc4c3-c3ccccn3)ccn2)cn1 [Example 2] , is IC50 less than 90 nM?
(A) Yes

(Q) In the record for Cc1nc(CC(=O)Nc2cc(-c3[nH]c4cccnc4c3-c3ccccn3)ccn2)cs1 [Example 3] , is IC50 less than 90 nM?
(A) Yes
